Biological target: Drosophila OR49b (Drosophila melanogaster)
Construct: expressed in transfected cells
Sequence (Q9V6H2 whole entry): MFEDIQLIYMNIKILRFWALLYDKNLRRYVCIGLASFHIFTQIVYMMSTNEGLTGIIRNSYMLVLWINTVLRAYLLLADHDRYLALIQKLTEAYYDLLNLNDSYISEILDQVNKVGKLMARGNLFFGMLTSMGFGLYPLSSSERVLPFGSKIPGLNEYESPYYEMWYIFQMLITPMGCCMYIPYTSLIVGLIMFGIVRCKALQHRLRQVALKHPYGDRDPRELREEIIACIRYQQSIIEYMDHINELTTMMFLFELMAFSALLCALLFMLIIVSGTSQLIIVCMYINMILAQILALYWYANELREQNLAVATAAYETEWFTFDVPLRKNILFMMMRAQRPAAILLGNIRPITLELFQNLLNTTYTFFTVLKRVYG
Sequence (Q9VNB5 whole entry partner): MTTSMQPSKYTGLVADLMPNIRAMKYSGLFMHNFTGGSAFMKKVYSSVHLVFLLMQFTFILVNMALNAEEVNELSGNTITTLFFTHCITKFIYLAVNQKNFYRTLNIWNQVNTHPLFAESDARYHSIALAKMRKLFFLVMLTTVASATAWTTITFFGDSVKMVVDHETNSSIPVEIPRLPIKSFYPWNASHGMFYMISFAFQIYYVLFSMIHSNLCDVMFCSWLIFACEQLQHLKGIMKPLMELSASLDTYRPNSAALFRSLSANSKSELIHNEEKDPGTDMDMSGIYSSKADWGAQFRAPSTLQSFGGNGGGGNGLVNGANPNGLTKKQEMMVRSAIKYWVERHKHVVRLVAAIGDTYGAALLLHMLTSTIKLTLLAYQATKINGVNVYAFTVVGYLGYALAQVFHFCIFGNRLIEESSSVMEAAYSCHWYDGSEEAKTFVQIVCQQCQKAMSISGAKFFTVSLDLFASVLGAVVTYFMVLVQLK
Experiment: cell-based
Conditions: ligand concentration 1 (unit not given); threshold 0.05, below shown as 0
Description: These VUAA1 normalized ∆F values were used to compare the different receptors and ligands. The concentration-dependent effect of the reference ligands on their cognate cell lines was examined in more detail. Twelve different ligand concentrations were measured on each cell line in an overall 0.01 μM to 100 μM concentration range with 5 repetitions with three technical replicates each time. […]
Parameter DF norm AVERAGE OR49b: see the listing below.
Measured attribute: DF norm AVERAGE OR49b

Molecule	Measured attribute	Measured number
COC(=O)c1ccccc1 [methyl benzoate]	DF norm AVERAGE OR49b	0.1337
C=CC(C)(O)CCC=C(C)C (stereo not shown)	DF norm AVERAGE OR49b	0
CC1=CC[C@@H](C(C)(C)O)CC1	DF norm AVERAGE OR49b	0
Cc1cccc(C)c1	DF norm AVERAGE OR49b	0
CCOC(=O)c1ccccc1 [ethyl benzoate]	DF norm AVERAGE OR49b	0.05937
CCCOC(C)=O [propyl acetate]	DF norm AVERAGE OR49b	0
COC(=O)c1ccccc1O [methyl salicylate]	DF norm AVERAGE OR49b	0
CC(=O)c1ccccc1	DF norm AVERAGE OR49b	0
CC/C=C/CCO	DF norm AVERAGE OR49b	0
CC(C)=CCC/C(C)=C/CC/C(C)=C/CO	DF norm AVERAGE OR49b	0
O=Cc1ccccc1	DF norm AVERAGE OR49b	0
CCCCCOC(C)=O [pentyl acetate]	DF norm AVERAGE OR49b	0.07954
C=C1CCC2CC1C2(C)C (stereo not shown)	DF norm AVERAGE OR49b	0.06581

Data provenance: paper PMC10709440
